Recorded values, source patent US20160185837A1.

Give pEC50 for every item shown.
# ASSAY SYSTEM: T1, mouse GIP receptor (mGIPr) (Mus musculus, UniProt Q0P543)
# T1 construct: expressed in transfected cells; host or cells: HEK293s or CHO cells
# T1 sequence (Q0P543 19-460): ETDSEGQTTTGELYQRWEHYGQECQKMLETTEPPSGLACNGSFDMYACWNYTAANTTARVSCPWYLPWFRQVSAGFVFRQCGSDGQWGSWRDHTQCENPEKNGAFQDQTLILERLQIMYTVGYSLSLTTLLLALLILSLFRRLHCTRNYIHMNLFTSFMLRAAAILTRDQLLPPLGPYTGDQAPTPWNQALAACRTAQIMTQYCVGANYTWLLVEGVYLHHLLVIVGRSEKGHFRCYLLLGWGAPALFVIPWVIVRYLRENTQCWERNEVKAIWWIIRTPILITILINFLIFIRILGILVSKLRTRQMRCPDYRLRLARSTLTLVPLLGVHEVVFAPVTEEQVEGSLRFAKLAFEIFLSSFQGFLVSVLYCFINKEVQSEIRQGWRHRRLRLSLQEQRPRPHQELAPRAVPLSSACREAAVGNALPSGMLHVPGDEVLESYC
# RUN DESCRIPTION: BSA-cAMP assay, cells expressing mouse GIP receptor
# Type: cell-based
# MEASUREMENT PARAMETERS: BSA-cAMP assay; read-out: cAMP activity mGIPr (EC50)
Recall that pEC50 is obtained by taking minus log10 of the concentration measured in molar.

What does the data say about its pEC50? Entry: IP246: Fc fusion, IgG1-TM, SEQ ID NO:116; agonist peptide YSEGTFTSDYSKLLEGQAAKLFIEWLVKGP (protein, also: Fc fusion, IgG1-TM, agonist peptide YSEGTFTSDYSKLLEGQAAKLFIEWLVKGP) YSEGTFTSDYSKLLEGQAAKLFIEWLVKGPAAAGGSGSTASSGSGSATGGGGAATHTCPPCPAPEF 6.59

What does the data say about its pEC50? Entry: IP247: Fc fusion, IgG1-TM, SEQ ID NO:117; agonist peptide YSEGTFTSDYSKLLEKIHQQLFIEWLVKGP (protein, also: Fc fusion, IgG1-TM, agonist peptide YSEGTFTSDYSKLLEKIHQQLFIEWLVKGP) YSEGTFTSDYSKLLEKIHQQLFIEWLVKGPAAAGGSGSTASSGSGSATGGGGAATHTCPPCPAPEF 8.64

What does the data say about its pEC50? Entry: IP250 (protein, /note=“Description of Artificial Sequence Synthetic Peptide-linker-hinge polypeptide”) YSEGTFTSDVSIAMDRQAIDEFIAWLLKGGAAAGGSGSTASSGSGSATGGGGAATHTCPPCPAPEF 7.46

What does the data say about its pEC50? Entry: IP226 (protein, /note=“Description of Artificial Sequence Synthetic Peptide-linker-hinge polypeptide”) YSEGTFTSDVSKLLERQAIDEFIAWLLKGGAAAGGSGSTASSGSGSATGGGGAATHTCPPCPAPEF 8.12

What does the data say about its pEC50? Entry: IP170 (protein, /note=“Description of Artificial Sequence Synthetic Peptide-linker-hinge polypeptide”) YSEGTFTSDVSSYMERQAIDEFIAWLLKGGAAAGGSGSTASSGSGSATGGGGAATHTCPPCPAPEF 7.47
